Test system: P388 leukemia ip, CD2F1 mice, survival T/C
protocol: NCI In Vivo Anticancer Drug Screen. Data for tumor model P388 Leukemia (intraperitoneal) in CD2F1 (CDF1) mice
conditionSet: endpoint: median survival time; dose: 25.0 mg/kg/injection; schedule: Q01DX005 (ip); vehicle: Klucel (hydroxypropylcellulose) (HPC); higher = longer survival
Inconclusive results and toxic doses are left out.
Each entry below carries its reported T/C.

Query block: # get_value(readout='T/C', item= `COc1ccc2nc(C)c3c(c2c1)C(=O)N(CCCN1CCN(CCCN2C(=O)c4c(C)nc5ccc(OC)cc5c4C2=O)CC1)C3=O` )
Result block: 96 % of control

Query block: # get_value(readout='T/C', item= `Cn1nnnc1-c1ccc(C(=O)O)cc1` )
Result block: 102 % of control

Query block: # get_value(readout='T/C', item= CC(C)(C)OC(=O)NCCCCC(NC(=O)OCc1ccccc1)C(=O)O (configuration not stated) )
Result block: 102 % of control

Query block: # get_value(readout='T/C', item= `Clc1cccc2nc(-c3ccccn3)n(CCc3ccncc3)c12` )
Result block: 95 % of control

Query block: # get_value(readout='T/C', item= `CC(C)(C)[Si](C)(C)O[C@@H]1C=C(S(=O)(=O)c2ccccc2)[C@H](N2CCSCC2)C1` )
Result block: 97 % of control

Next:
Query block: # get_value(readout='T/C', item= CC(C)N(C(C)C)P1(=NC(C)(C)C)N(C(C)(C)C)P(=NC(C)(C)C)(N(C(C)C)C(C)C)N1C(C)(C)C (configuration not stated) )
Result block: 104 % of control

Query block: # get_value(readout='T/C', item= `COc1ccc(S(=O)(=O)N/N=C/c2cnc[nH]2)cc1` )
Result block: 97 % of control

---

Each entry below carries its reported T/C.
Test system: P388 leukemia ip, CD2F1 mice, survival T/C
protocol: NCI In Vivo Anticancer Drug Screen. Data for tumor model P388 Leukemia (intraperitoneal) in CD2F1 (CDF1) mice
conditionSet: endpoint: median survival time; dose: 100.0 mg/kg/injection; schedule: Q01DX009 (ip); vehicle: saline; higher = longer survival
Inconclusive results and toxic doses are left out.

Solved cases below.
Query block: Missing value: T/C, P388 leukemia ip, CD2F1 mice, survival T/C, entry `COc1cccc(OC)c1OCCN` . Fill in?
Result block: 99 % of control

Query block: Missing value: T/C, P388 leukemia ip, CD2F1 mice, survival T/C, entry CC(C)COC1CCc2ncccc2O1 (configuration not stated) . Fill in?
Result block: 104 % of control

Query block: Missing value: T/C, P388 leukemia ip, CD2F1 mice, survival T/C, entry `Cn1nnc(-c2nnnn2N)n1` . Fill in?
Result block: 94 % of control

Query block: Missing value: T/C, P388 leukemia ip, CD2F1 mice, survival T/C, entry O=C(O)C1CCCN1 (configuration not stated) . Fill in?
Result block: 100 % of control

Query block: Missing value: T/C, P388 leukemia ip, CD2F1 mice, survival T/C, entry `O=C(Cn1c(=O)sc2ccc(Cl)cc21)N1CCN(CCO)CC1` . Fill in?
Result block: 99 % of control

Next:
Query block: Missing value: T/C, P388 leukemia ip, CD2F1 mice, survival T/C, entry C1CC2OCC1O2 (configuration not stated) . Fill in?
Result block: 106 % of control

Query block: Missing value: T/C, P388 leukemia ip, CD2F1 mice, survival T/C, entry `CSCC(=O)O` . Fill in?
Result block: 106 % of control

Query block: Missing value: T/C, P388 leukemia ip, CD2F1 mice, survival T/C, entry NC(=O)C1CNCC(C(N)=O)C1 (configuration not stated) . Fill in?
Result block: 98 % of control
